From: the supplement of paper PMC10567573

B1: ETS2 (parent)
chain: TSGKRYVYRFVCDLQNLLGFTPEE

Variants of: B1
Experimental Details: protein stability index of a GFP-peptide fusion (GPS, HEK-293T) (PSI 1-6); higher = more stable;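 note: lentivirally expressed fusions sorted by FACS into six bins by GFP to DsRed ratio, PSI derived from sequencing read proportions per bin multiplied by bin number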
Stated Conditions: c terminus: a fixed tail appended
Test Readout: protein stability index
Please respond with just the number, no unit label.

Please review the following examples before continuing.
P22V
1.05
G19L
1.96
L17V
1.91
G19E
1.31
L14K
3.2

From here, focus on the item given below.
Returns the measured protein stability index for the input variant. Input: `L14H`
2.34
